Sourced from patent US11802133B2

Target: MAGL (recombinant wild-type) (Homo sapiens (Human), UniProt Q99685)
Sequence (Q99685 whole entry, species assumed): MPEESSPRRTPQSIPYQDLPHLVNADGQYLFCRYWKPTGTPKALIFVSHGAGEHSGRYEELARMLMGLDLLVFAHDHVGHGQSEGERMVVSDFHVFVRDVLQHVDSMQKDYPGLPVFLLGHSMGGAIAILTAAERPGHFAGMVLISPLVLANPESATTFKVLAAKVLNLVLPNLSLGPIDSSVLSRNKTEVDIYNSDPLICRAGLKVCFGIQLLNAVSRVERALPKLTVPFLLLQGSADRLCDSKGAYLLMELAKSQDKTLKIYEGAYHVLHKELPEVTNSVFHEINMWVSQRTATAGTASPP
Assay: 4-NPA assay: MAGL inhibitory activity by hydrolysis of 4-nitrophenylacetate (absorbance at 405 nm)
Details: measured in 4-NPA assay (footnote [a]); 1 nM MAGL, 300 μM 4-nitrophenylacetate
value_type: IC50 (µM)
Give just the numeric value; µM need not be written.

Which IC50 value belongs to O=C1CO[C@H]2CCN(C(=O)N3CCC(Cc4ccc(C(F)(F)F)cc4-c4cn[nH]c4)CC3)C[C@H]2N1 ?
0.006

Do the same for O=C1CO[C@H]2CCN(C(=O)N3CCC(Oc4ccc(Cl)c(-c5ccc(Cl)cc5)c4)CC3)C[C@H]2N1 please
0.008

Please do the same for O=C1CO[C@H]2CCN(C(=O)N3CC(COc4ccc(F)cc4Cl)C3)C[C@H]2N1 [Example 28] as well.
0.018

Please answer likewise for CC1(OCc2ccc(C(F)(F)F)cc2F)CN(C(=O)N2CC[C@@H]3OCC(=O)N[C@@H]3C2)C1
0.02

Try this compound too: O=C1CO[C@H]2CCN(C(=O)N3CCC(Cc4ccc(Cl)cc4)CC3)C[C@H]2N1 [Example 35]
0.019

Now try O=C1CO[C@H]2CCN(C(=O)N3CC(OCc4cc(F)cc(C(F)(F)F)c4)C3)C[C@H]2N1 .
0.011

Moving on to O=C1CO[C@H]2CCN(C(=O)N3CCC(COc4ccc(F)cc4C(F)(F)F)CC3)C[C@H]2N1
0.01

For CC(C)(C)c1cnc(CC2CCN(C(=O)N3CC[C@@H]4OCC(=O)N[C@@H]4C3)CC2)o1 then?
0.16

Note, next up: CC1(COc2ccc(F)cc2Cl)CCN(C(=O)N2CC[C@H]3OCC(=O)N[C@H]3C2)CC1
0.288

Same thing, different compound: O=C1CO[C@H]2CCN(C(=O)N3CCC(Cc4ccc(C(F)(F)F)cc4C4CCCC4)CC3)C[C@H]2N1
0.003

What would you report for O=C1CO[C@H]2CCN(C(=O)N3CC(COc4ccc(C(F)(F)F)cc4F)C3)C[C@H]2N1 ?
0.005

Now this one: CC(C)(C)c1coc(CC2CCN(C(=O)N3CC[C@@H]4OCC(=O)N[C@@H]4C3)CC2)n1 [Example 2]
0.046

Please do the same for COc1ccc(OCC2CCN(C(=O)N3CC[C@@H]4OCC(=O)N[C@@H]4C3)CC2)c(F)c1 as well.
0.116

Cool, now O=C1CO[C@H]2CCN(C(=O)N3CCC(Cc4nc(-c5ccccc5)no4)CC3)C[C@H]2N1
0.892

Consider next the compound O=C1CO[C@H]2CCN(C(=O)N3CCC(Oc4ccc(C(F)(F)F)cc4)CC3)C[C@H]2N1 [Example 12] in the same way.
0.077

And what about the compound O=C1CO[C@H]2CCN(C(=O)N3CCC(COc4ccc(Cl)cc4)C3)C[C@H]2N1 (stereo partly shown) ?
0.293
